System Name: Peroxisome proliferator-activated receptor gamma (Homo sapiens) (UniProt P37231)
Protocol Summary: Transactivation of human PPARgamma ligand binding domain transfected in mouse embryo fibroblasts at 100 uM after 18 hrs analyzed by photinus and renilla luciferase activity by luminometry relative to 1 uM rosiglitazone
Calls of active or inactive are those of the source. The calls are words filed in the database; no cut-off is given here.
Measured Property: Activity

Some compounds with known Activity results, for comparison:
Molecular String	Measured Property	Reported Result
Cc1ccccc1-c1cccc(CNc2ccc(CCC(=O)O)cc2)c1	Activity	86%
O=C(O)CCc1ccc(CNc2ccccc2)cc1	Activity	inactive
Cc1ccc(-c2cccc(COc3ccc(CCC(=O)O)cc3)c2)cc1	Activity	15%
O=C(O)CCc1ccc(OCc2cccc(Br)c2)cc1	Activity	19%
Cc1ccc(-c2cccc(CNc3ccc(CCC(=O)O)cc3)c2)cc1	Activity	31%
O=C(O)CCc1ccc(NCc2cccc(-c3ccccc3)c2)cc1	Activity	33%

# input Sample `O=C(O)CCc1ccc2oc(-c3ccccc3)cc2c1` — what was its Activity?
# output inactive

# input // next record `O=C(O)CCc1ccc(NCc2ccc(-c3ccccc3)cc2)cc1`
# output 23%

# input // next record `O=C(O)CCc1ccc(OCc2ccccc2)c(I)c1`
# output 42%

----------
System Name: Free fatty acid receptor 1 (Homo sapiens)
Sequence (O14842 whole entry): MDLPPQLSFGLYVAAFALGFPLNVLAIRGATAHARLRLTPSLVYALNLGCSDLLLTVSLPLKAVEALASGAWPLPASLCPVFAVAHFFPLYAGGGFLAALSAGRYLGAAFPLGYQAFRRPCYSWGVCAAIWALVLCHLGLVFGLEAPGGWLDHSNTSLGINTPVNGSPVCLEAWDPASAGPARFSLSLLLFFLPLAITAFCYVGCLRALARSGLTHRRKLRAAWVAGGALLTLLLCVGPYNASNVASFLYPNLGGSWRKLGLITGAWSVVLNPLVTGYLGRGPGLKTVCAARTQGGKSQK
Protocol Summary: Agonist activity at human FFA1 transfected in 1321N1 cells assessed as calcium mobilization by microplate assay in presence of 0.5 % bovine serum albumin
Assay type: functional, cell-based
Measured Property: pEC50
Keep it numeric: pEC50 is minus log10 of the concentration in mol/L.

# input Provide value of pEC50 for this record tested with Free fatty acid receptor 1 (Homo sapiens): `Cc1ccccc1-c1cccc(COc2ccc(CCC(=O)O)cc2)c1`
# output 6.25

----------
System Name: Peroxisome proliferator-activated receptor gamma (Homo sapiens) (UniProt P37231)
Sequence (whole entry): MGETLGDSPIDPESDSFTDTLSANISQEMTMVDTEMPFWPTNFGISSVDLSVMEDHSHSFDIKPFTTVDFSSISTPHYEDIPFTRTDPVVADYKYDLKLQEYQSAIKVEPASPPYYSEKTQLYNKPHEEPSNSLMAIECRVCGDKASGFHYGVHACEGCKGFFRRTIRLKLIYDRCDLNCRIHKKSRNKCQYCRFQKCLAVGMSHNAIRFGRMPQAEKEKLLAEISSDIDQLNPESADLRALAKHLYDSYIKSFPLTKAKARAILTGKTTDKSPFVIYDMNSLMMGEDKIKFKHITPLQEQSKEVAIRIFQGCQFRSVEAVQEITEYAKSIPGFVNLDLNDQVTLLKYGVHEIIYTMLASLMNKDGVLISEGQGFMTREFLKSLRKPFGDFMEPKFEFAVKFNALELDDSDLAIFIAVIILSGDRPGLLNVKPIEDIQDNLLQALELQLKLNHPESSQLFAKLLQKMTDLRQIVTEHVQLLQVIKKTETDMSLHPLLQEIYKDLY
Protocol Summary: Transactivation of human PPARgamma ligand binding domain transfected in mouse embryo fibroblasts assessed as renilla luciferase activity at 1 uM after 18 hrs by luminometry relative to 1 uM rosiglitazone
Calls of active or inactive are those of the source. The rule behind the calls is not given here.
Measured Property: Activity

Some compounds with known Activity results, for comparison:
Molecular String	Reported Result
O=C(O)CCc1ccc(OCc2ccc(Oc3ccccc3)cc2)cc1	inactive
O=C(O)CCc1ccc(NCc2cccc(C(F)(F)F)c2)cc1	inactive
Cc1ccccc1-c1cccc(COc2ccc(CCC(=O)O)cc2)c1	inactive
O=C(O)CCc1ccc(OCc2cccc(-c3ccccc3)c2)cc1	inactive

# input Sample `COc1ccccc1-c1cccc(COc2ccc(CCC(=O)O)cc2)c1` — what was its Activity?
# output inactive

# input // next record `O=C(O)CCc1ccc(CCc2ccccc2)cc1`
# output inactive

# input // next record `O=C(O)CCc1ccc(CNc2ccccc2)cc1`
# output inactive
